Tested on: Severe acute respiratory syndrome coronavirus 2
assaySummary: Inhibition of N-terminal sumo/his-6 tagged SARS CoV-2 MPro (3264 to 3569 residues) extracted from Escherichia coli BL21 Gold (DE3) cells assessed as residual activity using Dabcyl-KTSAVLQSGFRKMEE-dans as substrate at 1 uM incubated for 10 mins by FRET assay relative to control
measuredParameter: Activity (%)

smilesData	measuredParameter	resultValue
CCCC[C@H](NC(=O)c1cccc(F)c1)C(=O)N[C@H](/C=C/C(C)=O)C[C@@H]1CCNC1=O	Activity	86
CC(=O)/C=C/[C@H](C[C@@H]1CCNC1=O)NC(=O)[C@H](CC(C)(C)C)NC(=O)c1ccc(F)cc1	Activity	68.8
CC(=O)/C=C/[C@H](C[C@@H]1CCNC1=O)NC(=O)[C@H](CC(C)(C)C)NC(=O)c1ccccc1F	Activity	89.4
CC(=O)/C=C/[C@H](C[C@@H]1CCNC1=O)NC(=O)[C@H](CC(C)C)NC(=O)c1cccc(F)c1	Activity	99.5
CCCC[C@H](NC(=O)c1ccccc1F)C(=O)N[C@H](/C=C/C(C)=O)C[C@@H]1CCNC1=O	Activity	98.7
CCCC[C@H](NC(=O)c1ccc(F)cc1)C(=O)N[C@H](/C=C/C(C)=O)C[C@@H]1CCNC1=O	Activity	58.8
CC(=O)/C=C/[C@H](C[C@@H]1CCNC1=O)NC(=O)[C@H](CC(C)C)NC(=O)c1ccccc1F	Activity	88.7
CC(=O)/C=C/[C@H](C[C@@H]1CCNC1=O)NC(=O)[C@H](CC1CCCCC1)NC(=O)c1ccc(F)cc1	Activity	68.2

###

# Activity per entry
Tested on: Severe acute respiratory syndrome coronavirus 2
assaySummary: Inhibition of N-terminal sumo/his-6 tagged SARS CoV-2 MPro (3264 to 3569 residues) extracted from Escherichia coli BL21 Gold (DE3) cells assessed as residual activity using Dabcyl-KTSAVLQSGFRKMEE-dans as substrate at 1 uM incubated for 10 mins by FRET assay relative to control
measuredParameter: Activity

smilesData	resultValue
CC(=O)/C=C/[C@H](C[C@@H]1CCNC1=O)NC(=O)[C@H](CC(C)C)NC(=O)c1ccc(F)cc1	64.9%
CC(=O)/C=C/[C@H](C[C@@H]1CCNC1=O)NC(=O)[C@H](CC1CC1)NC(=O)c1ccccc1F	57.9%
CCC[C@H](NC(=O)c1ccc(F)cc1)C(=O)N[C@H](/C=C/C(C)=O)C[C@@H]1CCNC1=O	96.5%
CCC[C@H](NC(=O)c1cccc(F)c1)C(=O)N[C@H](/C=C/C(C)=O)C[C@@H]1CCNC1=O	101%
CC(=O)/C=C/[C@H](C[C@@H]1CCNC1=O)NC(=O)[C@H](CC(C)(C)C)NC(=O)c1cccc(F)c1	77%
CC(=O)/C=C/[C@H](C[C@@H]1CCNC1=O)NC(=O)[C@H](CC1CCCCC1)NC(=O)c1ccccc1F	56.3%
CCC[C@H](NC(=O)c1ccccc1F)C(=O)N[C@H](/C=C/C(C)=O)C[C@@H]1CCNC1=O	101%
CC(=O)/C=C/[C@H](C[C@@H]1CCNC1=O)NC(=O)[C@H](CC1CC1)NC(=O)c1ccc(F)cc1	83.7%
CC(=O)/C=C/[C@H](C[C@@H]1CCNC1=O)NC(=O)[C@H](CC1CC1)NC(=O)c1cccc(F)c1	92.7%
CC(=O)/C=C/[C@H](C[C@@H]1CCNC1=O)NC(=O)[C@H](CC1CCCCC1)NC(=O)c1cccc(F)c1	64.2%
